Taken from patent US20240139189A1.

Biological target: METTL3 (Homo sapiens (Human))
Sequence (Q86U44 whole entry, looked up): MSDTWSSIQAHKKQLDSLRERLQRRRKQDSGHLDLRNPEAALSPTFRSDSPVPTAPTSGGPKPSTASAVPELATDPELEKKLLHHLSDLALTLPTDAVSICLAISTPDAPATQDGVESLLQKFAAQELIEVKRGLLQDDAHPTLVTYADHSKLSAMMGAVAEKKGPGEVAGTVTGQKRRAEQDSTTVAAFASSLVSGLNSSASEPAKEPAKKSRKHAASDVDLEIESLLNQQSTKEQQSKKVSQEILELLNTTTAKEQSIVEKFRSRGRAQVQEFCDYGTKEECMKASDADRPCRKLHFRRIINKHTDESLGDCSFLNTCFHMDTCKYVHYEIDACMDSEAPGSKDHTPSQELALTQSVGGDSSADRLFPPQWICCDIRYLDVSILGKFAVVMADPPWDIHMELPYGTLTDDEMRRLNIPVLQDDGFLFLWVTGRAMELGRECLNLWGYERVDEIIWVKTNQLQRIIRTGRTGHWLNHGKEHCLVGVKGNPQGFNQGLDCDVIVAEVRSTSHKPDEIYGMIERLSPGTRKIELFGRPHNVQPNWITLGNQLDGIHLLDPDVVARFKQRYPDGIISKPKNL
Sequence (Q9HCE5 whole entry partner, looked up): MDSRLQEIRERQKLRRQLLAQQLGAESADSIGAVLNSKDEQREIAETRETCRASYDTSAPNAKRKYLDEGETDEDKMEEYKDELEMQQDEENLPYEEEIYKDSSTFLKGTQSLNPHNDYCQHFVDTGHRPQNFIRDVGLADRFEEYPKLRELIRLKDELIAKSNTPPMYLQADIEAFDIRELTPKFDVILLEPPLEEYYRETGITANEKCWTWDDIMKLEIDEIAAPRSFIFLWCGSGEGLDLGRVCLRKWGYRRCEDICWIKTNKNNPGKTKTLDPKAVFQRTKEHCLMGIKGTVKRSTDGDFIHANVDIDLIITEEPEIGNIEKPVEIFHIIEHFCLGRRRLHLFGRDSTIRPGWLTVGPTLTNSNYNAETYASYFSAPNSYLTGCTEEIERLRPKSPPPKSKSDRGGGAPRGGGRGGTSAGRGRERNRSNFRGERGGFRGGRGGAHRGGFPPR
Assay: TR-FRET biochemical assay (time resolved-Förster resonance energy transfer)
Settings: TR-FRET assay
Entries and their measured IC50 follow.
Respond with the bare value in nM.

CN(C)c1cc(N2CCC3(CC2)CN(c2ccc(CN4CCC(C)(C)CC4)cc2)CC(=O)N3)ncn1; 970
CC1(C)CCN(Cc2ccc(N3CC(=O)NC4(CCN(c5ncnc6[nH]ccc56)CC4)C3)cc2)CC1; 61
CC(C)Nc1cc(N2CCC3(CC2)CN(c2ccc(CN4CCC(C)(C)CC4)cc2)CC(=O)N3)ncn1; 330
CC1(C)CCN(Cc2ccc(N3CC(=O)NC4(CCN(c5cc(NCc6ccccc6)ncn5)CC4)C3)cn2)CC1; 37
CNc1cc(N2CCCC(O)(CNC(=O)c3ccc(CN4CCC(C)(C)CC4)cc3)C2)ncn1 (stereo not drawn); 8200
CC1(C)CCN(Cc2ccc(C(=O)NC3CCN(c4cc(NCc5ccccc5)ncn4)CC3)cn2)CC1; 3600
CNc1cc(N2CCC3(CC2)CN(c2ccc(CN4CCC(C)(C)CC4)cc2F)CC(=O)N3)ncn1; 38
CC1(C)CCN(Cc2ccc(N3CC(=O)NC4(CCN(c5cc(NC6CC6)ncn5)CC4)C3)cc2)CC1; 84

Now let's try a different one.
INPUT: Identify the measured IC50 of `CNc1cc(N2CCC3(CC2)CN(c2ccc(CN4CCC(C)(C)CC4)cc2)C(=O)N3)ncn1` for METTL3 (Homo sapiens (Human)).
OUTPUT: 1800
